total protein half-life in vivo: recorded values
- method description: total protein half-life in vivo (active degradation + dilution); higher = more stable protein
- run parameters: wild type E. coli NCM3722; growth: C-lim chemostat; doubling time 12 h
The response must be a number in h with no trailing unit.

[[record]]
sequence_code = "MLAFIRFLFAGLLLVISHAFAATVQDEHGTFTLEKTPQRIVVLELSFADALAAVDVIPIGIADDNDAKRILPEVRAHLKPWQSVGTRAQPSLEAIAALKPDLIIADSSRHAGVYIALQQIAPVLLLKSRNETYAENLQSAAIIGEMVGKKREMQARLEQHKERMAQWASQLPKGTRVAFGTSREQQFNLHTQETWTGSVLASLGLNVPAAMAGASMPSIGLEQLLAVNPAWLLVAHYREESIVKRWQQDPLWQMLTAAQKQQVASVDSNTWARMRGIFAAERIAADTVKIFHHQPLTVVK"
measured_number = 7.06


We next turn to a different sequence, shown below.
Entry MDNRGEFLNNVAQALGRPLRLEPQAEDAPLNNYANERLTQLNQQQRCDAFIQFASDVMLTRCELTSEAKAAEAAIRLCKELGDQSVVISGDTRLEELGISERLQQECNAVVWDPAKGAENISQAEQAKVGVVYAEYGLTESGGVVLFSAAERGRSLSLLPEYSLFILRKSTILPRVAQLAEKLHQKAQAGERMPSCINIISGPSSTADIELIKVVGVHGPVKAVYLIIEDC : reported total protein half-life in vivo = ? 5.23
